A collection of compounds and their measured CC50 at 24 h
assay: Cytotoxicity against human IOSE80 cells assessed as reduction in cell viability measured after 24 hrs by MTT assay; assay type: cell-based
Could you give me the number in µM? Just the number is fine.

The cases that follow already have their CC50 at 24 h on record.
compound	CC50 at 24 h (µM)
CC1(C)[C@H]2CC[C@]1(C)N(Cc1cn(-c3cccc(Cl)c3)nn1)C(=O)C2	13.5
C=CCNC1=C2C[C@@H](C)C[C@H](OC)[C@H](O)[C@@H](C)/C=C(\C)[C@H](OC(N)=O)[C@@H](OC)/C=C\C=C(/C)C(=O)NC(=CC1=O)C2=O [TANESPIMYCIN]	21.5
CC1(C)[C@H]2CC[C@]1(C)N(Cc1cn(-c3ccccc3)nn1)C(=O)C2	23.4

Query block: If you can, please state the reported CC50 at 24 h value of CC1(C)[C@H]2CC[C@]1(C)N(Cc1cn(-c3ccc(C#N)cc3)nn1)C(=O)C2 .
Result block: 5.52

====

test system: A549; experiment: Antiproliferative activity against human A549 cells assessed as inhibition of cell proliferation measured after 24 hrs by MTT assay; type: functional, cell-based; details: A549, 24 h
property: IC50 (nM)
Could you give me the number in nM? Just the number is fine.

The cases that follow already have their IC50 on record.
Cc1ccccc1-n1cc(CN2C(=O)C[C@@H]3CC[C@@]2(C)C3(C)C)nn1 90
CC1(C)[C@H]2CC[C@]1(C)N(Cc1cn(-c3ccccc3F)nn1)C(=O)C2 240
CC1(C)[C@H]2CC[C@]1(C)N(Cc1cn(-c3cccc(O)c3)nn1)C(=O)C2 180

Query block: If you can, please state the reported IC50 value of CC1(C)[C@H]2CC[C@]1(C)N(Cc1cn(-c3cccc(Cl)c3)nn1)C(=O)C2 .
Result block: 60

Data provenance: ChEMBL document CHEMBL4813917
